Tgt: human PTP-1B (Homo sapiens, UniProt P18031)
Construct: recombinant human PTP-1B[1-298] or PTP-1B[1-322]
Sequence (P18031 1-298 limits assumed): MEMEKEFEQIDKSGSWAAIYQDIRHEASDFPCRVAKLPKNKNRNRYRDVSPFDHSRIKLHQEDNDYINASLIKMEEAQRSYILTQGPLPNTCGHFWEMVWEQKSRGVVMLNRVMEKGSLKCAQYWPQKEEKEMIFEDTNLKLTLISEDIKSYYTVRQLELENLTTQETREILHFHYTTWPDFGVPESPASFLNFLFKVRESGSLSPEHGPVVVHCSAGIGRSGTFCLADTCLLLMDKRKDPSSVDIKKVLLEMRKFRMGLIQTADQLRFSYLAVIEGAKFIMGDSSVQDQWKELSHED
Assay Remarks: inhibitory activity (IC50) to human PTP-1B
pIC50 overview
A value of pIC50 is the negative decimal logarithm of a concentration given in moles per litre.

{"Test Smiles": "O=C1CN(c2cc(-c3cn[nH]c3)ccc2O)S(=O)(=O)N1", "pIC50": 7.10}

Output reported pIC50 of the compound `N#CCCCn1cc(-c2ccc(O)c(N3CC(=O)NS3(=O)=O)c2)cn1` on human PTP-1B (Homo sapiens, UniProt P18031). 7.07

Provenance of the data: patent US20080293782A1
